molecular target: Glutamate receptor ionotropic, NMDA 2C (Rattus norvegicus) (UniProt Q00961); experiment: Compound was tested for induction of phencyclidine (PCP) like ataxia behavior; assay type: functional
Sequence (Q00961 20-1237 limits assumed): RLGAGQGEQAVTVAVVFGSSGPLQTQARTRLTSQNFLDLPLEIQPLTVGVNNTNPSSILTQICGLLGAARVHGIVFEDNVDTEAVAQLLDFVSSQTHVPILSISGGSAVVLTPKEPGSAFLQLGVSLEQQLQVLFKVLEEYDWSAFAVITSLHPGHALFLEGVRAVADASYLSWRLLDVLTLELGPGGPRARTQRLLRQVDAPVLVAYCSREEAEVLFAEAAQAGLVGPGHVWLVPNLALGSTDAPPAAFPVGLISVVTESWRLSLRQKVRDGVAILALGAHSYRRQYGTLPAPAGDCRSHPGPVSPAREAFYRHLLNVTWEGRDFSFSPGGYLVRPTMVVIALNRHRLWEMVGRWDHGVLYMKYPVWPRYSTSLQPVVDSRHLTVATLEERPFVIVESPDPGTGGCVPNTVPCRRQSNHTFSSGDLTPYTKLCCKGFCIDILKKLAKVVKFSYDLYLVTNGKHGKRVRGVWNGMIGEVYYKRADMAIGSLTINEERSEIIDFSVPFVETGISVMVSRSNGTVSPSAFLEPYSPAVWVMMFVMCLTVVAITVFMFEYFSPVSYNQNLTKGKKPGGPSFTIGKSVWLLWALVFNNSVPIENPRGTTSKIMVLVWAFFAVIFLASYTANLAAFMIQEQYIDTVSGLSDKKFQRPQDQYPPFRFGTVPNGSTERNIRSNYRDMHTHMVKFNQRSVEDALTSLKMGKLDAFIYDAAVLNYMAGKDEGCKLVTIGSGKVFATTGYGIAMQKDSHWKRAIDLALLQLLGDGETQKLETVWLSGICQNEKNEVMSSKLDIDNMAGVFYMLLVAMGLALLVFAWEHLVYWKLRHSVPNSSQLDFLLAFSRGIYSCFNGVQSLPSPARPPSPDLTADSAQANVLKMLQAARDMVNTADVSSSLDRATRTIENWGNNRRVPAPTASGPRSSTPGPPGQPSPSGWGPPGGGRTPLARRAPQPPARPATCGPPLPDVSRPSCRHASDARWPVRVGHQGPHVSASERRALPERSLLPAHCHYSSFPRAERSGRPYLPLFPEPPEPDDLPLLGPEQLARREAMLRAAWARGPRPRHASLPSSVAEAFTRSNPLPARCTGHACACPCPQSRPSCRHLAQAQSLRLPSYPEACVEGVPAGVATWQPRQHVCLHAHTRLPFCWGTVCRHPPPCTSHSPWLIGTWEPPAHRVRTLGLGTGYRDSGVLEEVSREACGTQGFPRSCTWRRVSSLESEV
Parameter ED50: see the listing below.
The answer is to be given in mg/kg; state only the numeric part.

Examples from the recorded data:
- compound: "c1ccc(-c2cccc3c2CNCC3)cc1"
  measured-target: "Glutamate receptor ionotropic, NMDA 2C (Rattus norvegicus) (UniProt Q00961)"
  ED50 [mg/kg]: 44
- compound: "c1ccc(C2(N3CCCCC3)CCCCC2)cc1 [PHENCYCLIDINE]"
  measured-target: "Glutamate receptor ionotropic, NMDA 2C (Rattus norvegicus) (UniProt Q00961)"
  ED50 [mg/kg]: 6.5
- compound: "c1ccc(C2Cc3ccccc3CN2)cc1 (stereo unspecified)"
  measured-target: "Glutamate receptor ionotropic, NMDA 2C (Rattus norvegicus) (UniProt Q00961)"
  ED50 [mg/kg]: 18
- compound: "c1ccc(CC2NCCc3ccccc32)cc1 (stereo unspecified)"
  measured-target: "Glutamate receptor ionotropic, NMDA 2C (Rattus norvegicus) (UniProt Q00961)"
  ED50 [mg/kg]: 42

Could you share which ED50 value was measured for Fc1ccc(C2NCCc3ccccc32)cc1 (stereo unspecified) ? 49

Where these numbers come from: ChEMBL document CHEMBL1124619
